Values compiled from paper PMC8970883.

Assay: Pharmacokinetic study in rats after intragastric administration of Farfarae Flos extract (plasma, LC-MS/MS)
Assay type: in vivo
Details: male; rat plasma, oral Farfarae Flos extract 7.8 g·kg^−1, mean ± SD
value.kind: half-life (h)

Reference set, count: 4
[in] GET /values?readout=half-life&item= O=c1c(O[C@@H]2O[C@H](CO)[C@@H](O)[C@H](O)[C@H]2O)c(-c2ccc(O)c(O)c2)oc2cc(O)cc(O)c12
[out] 1.19

[in] GET /values?readout=half-life&item= O=C(/C=C/c1ccc(O)c(O)c1)O[C@@H]1C[C@@](O)(C(=O)O)C[C@@H](O)[C@@H]1O
[out] 1.49

[in] GET /values?readout=half-life&item= O=C(/C=C/c1ccc(O)c(O)c1)O[C@H]1[C@H](O)C[C@](O)(C(=O)O)C[C@H]1O
[out] 1.06

[in] GET /values?readout=half-life&item= O=C(C=Cc1ccc(O)c(O)c1)OC1CC(O)(C(=O)O)CC(O)C1OC(=O)C=Cc1ccc(O)c(O)c1 (stereo not shown)
[out] 1.37

(P) O=C(/C=C/c1ccc(O)c(O)c1)O[C@@H]1C[C@](O)(C(=O)O)C[C@@H](O)[C@H]1O
(Q) C=C1[C@H](OC(=O)/C=C(\C)CC)C[C@@H](C(C)C)[C@@H]2[C@@H]([C@@H](C)OC(C)=O)C(=O)C[C@@H]12
(R) O=C(O)/C=C/c1ccc(O)c(O)c1
[in] Write the entries in order, lowest recorded half-life first. Provide the labels, sequenced as the question asks.
[out] Q, P, R
(Q: 0.82 h, P: 1.28 h, R: 2.75 h)

---

Assay: Pharmacokinetic study in rats after intragastric administration of Farfarae Flos extract (plasma, LC-MS/MS)
Type: in vivo
Settings: rat plasma, oral Farfarae Flos extract 3.9 g·kg^−1, mean ± SD
value.kind: AUC(0–24h) (ng/mL ∗ h)

(P) O=C(/C=C/c1ccc(O)c(O)c1)O[C@H]1[C@H](O)C[C@](O)(C(=O)O)C[C@H]1O
(Q) O=C(C=Cc1ccc(O)c(O)c1)OC1CC(O)(C(=O)O)CC(O)C1OC(=O)C=Cc1ccc(O)c(O)c1 (stereo not drawn)
(R) C=C1[C@H](OC(=O)/C=C(\C)CC)C[C@@H](C(C)C)[C@@H]2[C@@H]([C@@H](C)OC(C)=O)C(=O)C[C@@H]12
[in] Which order do these items fall in when sorted by AUC(0–24h) from largest to smallest? Provide the labels, sequenced as the question asks.
[out] P, Q, R
(P: 422.3 ng/mL ∗ h, Q: 187 ng/mL ∗ h, R: 1.06 ng/mL ∗ h)

---

Assay: Pharmacokinetic study in rats after intragastric administration of Farfarae Flos extract (plasma, LC-MS/MS)
Format: in vivo
Conditions: rat plasma, oral Farfarae Flos extract 3.9 g·kg^−1, mean ± SD
value.kind: AUC(0–∞) (ng/mL ∗ h)

Reference set, count: 3
[in] GET /values?readout=AUC(0–∞)&item= O=C(/C=C/c1ccc(O)c(O)c1)O[C@H]1[C@H](O)C[C@](O)(C(=O)O)C[C@H]1O [CCLA, cryptochlorogenic acid]
[out] 585.7

[in] GET /values?readout=AUC(0–∞)&item= O=C(O)/C=C/c1ccc(O)c(O)c1 [Caffeic acid, caffeic acid]
[out] 691.7

[in] GET /values?readout=AUC(0–∞)&item= O=C(/C=C/c1ccc(O)c(O)c1)O[C@@H]1C[C@@](O)(C(=O)O)C[C@@H](O)[C@@H]1O [NCLA, neochlorogenic acid]
[out] 239.3

(P) O=C(C=Cc1ccc(O)c(O)c1)OC1CC(O)(C(=O)O)CC(O)C1OC(=O)C=Cc1ccc(O)c(O)c1 (stereo not shown) [IAC, isochlorogenic acid C]
(Q) C=C1[C@H](OC(=O)/C=C(\C)CC)C[C@@H](C(C)C)[C@@H]2[C@@H]([C@@H](C)OC(C)=O)C(=O)C[C@@H]12 [Tussilagone, tussilagone]
[in] Which gives the smaller AUC(0–∞) number: P or Q ? # reply format: chosen label
[out] Q
